# Test system: Nrf-2
# ASSAY_PROCEDURE: Nrf-2 Activation Assay (Nrf-2 Assay)
# Type: cell-based, human
# ASSAY_CONTEXT: FIG. 7
QUANTITY: activation of Nrf-2 pathway, in words

CC1=C(C)C(=O)C(CC[C@](C)(O)CC/C=C(\C)CC/C=C(\C)CCC=C2COC2)=C(C)C1=O ... do not activate
CC1=C(C)C(=O)C(CC[C@@](C)(O)CC/C=C(\C)CCC=C(F)F)=C(C)C1=O ... do not activate
CC1=C(C)C(=O)C(CC[C@](C)(O)CC/C=C(\C)CCC=C(F)F)=C(C)C1=O ... do not activate
CC1=C(C)C(=O)C(CC[C@](C)(O)CCCCCCCCC(F)(F)F)=C(C)C1=O ... do not activate

###

# Test system: HepG2 human hepatocarcinoma cells
# ASSAY_PROCEDURE: Rotenone ATP Assay (Complex I Assay)
# Format: cell-based
# ASSAY_CONTEXT: Homo sapiens, 1 h; HepG2, 50 micromolar rotenone, 60 minutes, ATP bioluminescence; read-out: EC50 Rotenone ATP Assay
pEC50: −log10 of the molar value.
QUANTITY: pEC50

q: Given the entry CC(C)=CCC/C(C)=C/CC/C(C)=C/CC[C@@](C)(O)CCC1=C(C)C(=O)C(C)=C(C)C1=O (stereo in doubt) [Vatiquinone, reference compound] , report its measured pEC50.
a: < 5.52
